# TESTED_SYSTEM: anti-ALFA VHH
# METHOD: binding affinity to the anti-ALFA VHH (log(agonist) vs. response, variable slope)
# RECORDED_CONDITIONS: binding to anti-ALFA VHH; listed as parent linear ALFA peptide
QUANTITY_KIND: EC50
Answer with the figure and its unit, nothing else.

Item under review: Ac-SRLEEELRRRLTE-NH2 [SD15197, reference compound] . Reported EC50?
2.6 nM

###

# METHOD: Pharmacokinetic study in mouse, intravenous bolus, plasma LC-MS/MS, non-compartmental analysis
# RECORDED_CONDITIONS: in vivo, iv, AUC0-inf, normalized to a dose of 1 mg/kg, given 3 mg/kg i.v.
Bridge positions count the residues as written; N and C are the ends. Peptide text beside a SMILES is read from it.
QUANTITY_KIND: AUC(0-inf)
Reply with the number, then its unit.

If you can, please state the reported AUC(0-inf) value of CC(=O)N1CCC[C@H]1C(=O)N[C@@H](CO)C(=O)N[C@@H](CCCNC(=N)N)C(=O)N[C@@H](CC(C)C)C(=O)N[C@@H](CCC(=O)O)C(=O)N[C@H]1CCC(=O)NCCCC[C@@H](C(=O)N[C@@H](CCCNC(=N)N)C(=O)N[C@@H](CC(C)C)C(=O)N[C@H](C(=O)N[C@@H](CCC(=O)O)C(N)=O)[C@@H](C)O)NC(=O)[C@H](CCCNC(=N)N)NC(=O)[C@H](CC(C)C)NC(=O)[C@H](CCC(=O)O)NC1=O [SD15341] (Ac-PSRLEEELRKRLTE-NH2; lactam 6-10) .
316 ng·h/mL

###

# RECORDED_CONDITIONS: mouse, in vivo, iv, 10 mg/kg, AUC0-inf
QUANTITY_KIND: AUC(0-inf) (ng·h/mL)
Write the value in ng·h/mL as a bare number.

Requested field: AUC(0-inf). Item: Ac-PSRLEEELRRRLTE-NH2 [SD14316]
230

###

# METHOD: Pharmacokinetic study in mouse, intravenous bolus, plasma LC-MS/MS, non-compartmental analysis
# RECORDED_CONDITIONS: in vivo, iv, 3 mg/kg, Vss, single i.v., 3 mg/kg
Bridge positions count the residues as written; N and C are the ends. Peptide text beside a SMILES is read from it.
QUANTITY_KIND: Vd

What value of Vd has been recorded for this entry: CC(=O)N1CCC[C@H]1C(=O)N[C@@H](CO)C(=O)N[C@@H](CCCNC(=N)N)C(=O)N[C@@H](CC(C)C)C(=O)N[C@@H](CCC(=O)O)C(=O)N[C@H]1CCC(=O)NCCCC[C@@H](C(=O)N[C@@H](CCCNC(=N)N)C(=O)N[C@@H](CC(C)C)C(=O)N[C@H](C(=O)N[C@@H](CCC(=O)O)C(N)=O)[C@@H](C)O)NC(=O)[C@H](CCCNC(=N)N)NC(=O)[C@H](CC(C)C)NC(=O)[C@H](CCC(=O)O)NC1=O [SD15341] (Ac-PSRLEEELRKRLTE-NH2; lactam 6-10)
0.237 L/kg

###

# METHOD: Plasma stability, mouse plasma
# RECORDED_CONDITIONS: mouse plasma, 37° C., timepoint 1 h
Bridge positions count the residues as written; N and C are the ends. Square brackets hold non-standard residues; d marks the D form. Peptide text beside a SMILES is read from it.
Recorded measurements of Tube 1 (compound concentration), one per entry
Number only, in x; omit the unit.

Solved entries (count: 3):
- COMPOUND: "CC(=O)N1CCC[C@H]1C(=O)N[C@@H](CO)C(=O)N[C@@H](CCCNC(=N)N)C(=O)N[C@@H](CC(C)C)C(=O)N[C@@H](CCC(=O)O)C(=O)N[C@H]1CSSC[C@H](C(=O)N[C@@H](CCCNC(=N)N)C(=O)N[C@@H](CCCNC(=N)N)C(=O)N[C@@H](CC(C)C)C(=O)N[C@H](C(=O)N[C@@H](CCC(=O)O)C(N)=O)[C@@H](C)O)NC(=O)[C@H](CC(C)C)NC(=O)[C@H](CCC(=O)O)NC1=O [SD15807] (Ac-PSRLECEL[dC]RRLTE-NH2; disulfide 6-9)"
  QUANTITY_KIND: "Tube 1 (compound concentration)"
  EXPERIMENTAL_VALUE: 1.726
- COMPOUND: "CC(=O)N1CCC[C@H]1C(=O)N[C@@H](CO)C(=O)N[C@@H](CCCNC(=N)N)C(=O)N[C@@H](CC(C)C)C(=O)N[C@@H](CCC(=O)O)C(=O)N[C@H]1CCC(=O)NCCCC[C@H](C(=O)N[C@@H](CCCNC(=N)N)C(=O)N[C@@H](CC(C)C)C(=O)N[C@H](C(=O)N[C@@H](CCC(=O)O)C(N)=O)[C@@H](C)O)NC(=O)[C@H](CCCNC(=N)N)NC(=O)[C@H](CC(C)C)NC(=O)[C@H](CCC(=O)O)NC1=O [SD15808] (Ac-PSRLEEELR[dK]RLTE-NH2; lactam 6-10)"
  QUANTITY_KIND: "Tube 1 (compound concentration)"
  EXPERIMENTAL_VALUE: 2.668
- COMPOUND: "CC(=O)N1CCC[C@H]1C(=O)N[C@@H](CO)C(=O)N[C@@H](CCCNC(=N)N)C(=O)N[C@@H](CC(C)C)C(=O)N[C@@H](CCC(=O)O)C(=O)N[C@H]1CCCCNC(=O)CC[C@@H](C(=O)N[C@@H](CCCNC(=N)N)C(=O)N[C@@H](CC(C)C)C(=O)N[C@H](C(=O)N[C@@H](CCC(=O)O)C(N)=O)[C@@H](C)O)NC(=O)[C@H](CCCNC(=N)N)NC(=O)[C@H](CC(C)C)NC(=O)[C@H](CCC(=O)O)NC1=O [SD15805] (Ac-PSRLEKELRERLTE-NH2; lactam 6-10)"
  QUANTITY_KIND: "Tube 1 (compound concentration)"
  EXPERIMENTAL_VALUE: 2.223

Which value of Tube 1 (compound concentration) has been reported for CC(=O)N1CCC[C@H]1C(=O)N[C@@H](CO)C(=O)N[C@@H](CCCNC(=N)N)C(=O)N[C@@H](CC(C)C)C(=O)N[C@H]1CCC(=O)NCCCC[C@@H](C(=O)N[C@@H](CCCNC(=N)N)C(=O)N[C@@H](CCCNC(=N)N)C(=O)N[C@@H](CC(C)C)C(=O)N[C@H](C(=O)N[C@@H](CCC(=O)O)C(N)=O)[C@@H](C)O)NC(=O)[C@H](CC(C)C)NC(=O)[C@H](CCC(=O)O)NC(=O)[C@H](CCC(=O)O)NC1=O [SD15806] (Ac-PSRLEEELKRRLTE-NH2; lactam 5-9) in the records?
2.773
